- measured.target: RPSA-(2–220) (Mus musculus, UniProt P14206)
- protocol.text: Fluorimetric titration of RPSA derivative with EGCG
- Assay type: binding, murine
- measurement.setup: read-out: KD(EGCG); 25°C, PBS, equilibrium in solution, spectrofluorimetry
recorded.metric: pKd
Hey, just a heads up that pKd is the negative log base 10 of the concentration in molar.

The compound listed as O=C(O[C@@H]1Cc2c(O)cc(O)cc2O[C@@H]1c1cc(O)c(O)c(O)c1)c1cc(O)c(O)c(O)c1 [EGCG, (−)-epigallocatechin-3-gallate] shows pKd equal to 6.89

###

- measured.target: N-domain of RPSA (Mus musculus)
recorded.metric: pKd
A value of pKd is the negative decimal logarithm of a concentration given in moles per litre.

Lab note: compound O=C(O[C@@H]1Cc2c(O)cc(O)cc2O[C@@H]1c1cc(O)c(O)c(O)c1)c1cc(O)c(O)c(O)c1 [EGCG, (−)-epigallocatechin-3-gallate] tested on N-domain of RPSA (Mus musculus); recorded pKd was 7.00
